Measured Binding Signal (fold over 6E7 parental antibody), listed per entry for reference.
Target of assay: T1, human TREM2 (human) (UniProt Q9NZC2)
T1 sequence (looked up): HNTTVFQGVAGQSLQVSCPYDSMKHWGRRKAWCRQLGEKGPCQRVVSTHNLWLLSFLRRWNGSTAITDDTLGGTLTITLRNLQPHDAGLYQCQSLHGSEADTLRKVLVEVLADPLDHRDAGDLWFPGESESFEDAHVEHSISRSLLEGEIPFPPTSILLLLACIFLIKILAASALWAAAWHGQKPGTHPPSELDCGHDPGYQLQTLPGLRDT
Test details: 2nd screen, 2 nM Ab
Answer with a number only, understood to be in fold.

Binder	Display unit	Quantitative result
6E7 variant V16 (antibody, V domains shown) VH: EVQLVQSGAEVKKPGESLKISCKGSGYSMTSYWIAWVRQMPGKGLEWMGIIYPGDGDTRYSPSFQGQVTISADKSISTAYLQWSSLKASDTAMYFCARSRTFYYDSSDYFDYWGQGTLVTVSS VL: DIQMTQSPSSVSASVGDRVTITCRASQGISSWLAWYQQKPGKAPKLLIYAASNLQNGVPSRFSGSGSGTDFTLTISSLQPEDFATYFCQQADSFPRTFGQGTKLEIK	fold	3.57

// sample 6E7 variant V76 (antibody, V domains shown) VH: EVQLVQSGAEVKKPGESLKISCKGSGYSFGSYWIAWVRQMPGKGLEWMGIIYPGDSDTRYSPEFQGQVTISADKSISTAYLQWSSLKASDTAMYFCARQRTFYYDSSDYSDYWGQGTLVTVSS VL: DIQMTQSPSSVSASVGDRVTITCRASQGISSWLAWYQQKPGKAPKLLIYAASSLQKGVPSRFSGSGSGRDFTLTISSLQPEDFATYFCQQADSFPRTFGQGTKLEIK , its Binding Signal (fold over 6E7 parental antibody) was 4.34

// sample 6E7 variant V5 (antibody, V domains shown) VH: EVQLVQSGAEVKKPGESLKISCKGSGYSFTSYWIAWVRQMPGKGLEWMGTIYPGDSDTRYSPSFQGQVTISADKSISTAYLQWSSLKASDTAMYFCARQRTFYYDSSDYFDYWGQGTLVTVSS VL: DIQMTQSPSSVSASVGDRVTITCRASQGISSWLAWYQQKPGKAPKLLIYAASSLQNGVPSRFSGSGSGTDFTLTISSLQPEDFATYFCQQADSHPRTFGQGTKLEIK , its Binding Signal (fold over 6E7 parental antibody) was 1.25
